The reported numbers originate from PubChem BioAssay AID1159580.

assay procedure: chemical genetic growth profiling, strain panel (AID 1159580);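 also: tested at 20 µM; growth read once vehicle control cultures reached saturation at 30 °C; 1 = growth at the plate median or of vehicle wells; lower values mean less growth of the strain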
details: S. cerevisiae deletion strains, growth OD, locus YJL164C, strain tpk1, stronger effect = lower value
Out of some 5,500 compounds screened, about 2,000 (36%) were called active. About 18% were inconclusive and are not listed. The list shows a part of the results.
normalized growth values, listed per item
readout type: normalized growth

>>> recorded_measurement("COc1ccccc1OCC(O)CO (stereo not given)")
1.02
>>> recorded_measurement("CC(=O)c1cc(CC=C(C)C)c(O)c(CC=C(C)C)c1")
0.999
>>> recorded_measurement("CCCc1cc(=O)[nH]c(=S)[nH]1")
1.02
>>> recorded_measurement("OC[C@H]1O[C@@](CO)(O[C@@H]2O[C@H](CO)[C@@H](O)[C@H](O)[C@H]2O)[C@@H](O[C@@H]2O[C@H](CO)[C@@H](O)[C@H](O)[C@H]2O)[C@@H]1O")
1
>>> recorded_measurement("N[C@@H](CCC(=O)N[C@@H](CS)C(=O)NCC(=O)O)C(=O)O")
1.01
>>> recorded_measurement("CC(=O)Oc1cccc(O)c1")
1.01
>>> recorded_measurement("OC[C@H]1O[C@@H](O[C@H]2[C@H](O)[C@@H](O)[C@@H](O)O[C@@H]2CO)[C@H](O)[C@@H](O)[C@@H]1O")
1.02
>>> recorded_measurement("CC(=O)Oc1ccc(C(c2ccc(OC(C)=O)cc2)c2ccccn2)cc1")
1.02
>>> recorded_measurement("CN(C)CCCN1c2ccccc2CCc2ccccc21")
1
>>> recorded_measurement("CC(=O)O[C@H]1CC[C@@]2(C)C(=CC(=O)C3C4CCC(C(C)CCCC(C)C)[C@@]4(C)CCC32)C1 (stereo not given in full)")
1
>>> recorded_measurement("CCC(C)C(=O)OC1[C@@H]2CC3=C4CC(=O)O[C@@H](c5ccoc5)[C@]4(C)CCC3[C@@](C)(C2=O)[C@@H](CC(=O)OC)C1(C)C (stereo not given in full)")
1.02
>>> recorded_measurement("CC1(C)CC2C1CC[C@]1(C)CCC3C(C(=O)O)CC(=O)O[C@@]32C1 (stereo not given in full)")
1.02
>>> recorded_measurement("COC(=O)c1c(OC)cc2c(c1C)Oc1c(Cl)c(O)c(Cl)c(C)c1C(=O)O2")
0.983
>>> recorded_measurement("CCN(CC)CCOCCOC(=O)C1(c2ccccc2)CCCC1")
0.977
>>> recorded_measurement("CC(=O)c1ccc(O)c(CC=C(C)C)c1")
0.973
>>> recorded_measurement("CS(=O)(=O)c1ccc([C@@H](O)[C@@H](CO)NC(=O)C(Cl)Cl)cc1")
1.01
>>> recorded_measurement("CC(C)NCC(O)COc1ccc(COCCOC(C)C)cc1 (stereo not given)")
1.01
>>> recorded_measurement("CN[C@@H]1[C@H](O)[C@H](NC)[C@H]2O[C@@]3(O)C(=O)C[C@@H](C)O[C@H]3O[C@@H]2[C@H]1O")
0.987
>>> recorded_measurement("CC(C)=CC1C(C(=O)O)C1(C)C (stereo not given)")
1.01
>>> recorded_measurement("CN(C)CCCN1c2ccccc2Sc2ccccc21")
0.992
>>> recorded_measurement("CS(=O)(=O)Nc1ccc([N+](=O)[O-])cc1Oc1ccccc1")
0.992
>>> recorded_measurement("Cc1cc(=O)oc2cc(O)c(O)cc12")
0.973
>>> recorded_measurement("CC12CCC(=O)C=C1CCC1C2[C@@H](O)CC2(C)C1CC[C@]2(O)C(=O)COP(=O)(O)O (stereo not given in full)")
0.995
>>> recorded_measurement("C[n+]1ccccc1/C=N/O")
1
>>> recorded_measurement("COC(=O)/C(=C1\\OC(=O)C(c2ccccc2)=C1O)c1ccccc1")
0.986
